- Test system: dehydrogenase domain of csNOX5
- methodNotes: NADPH depletion assay on csNOX5 dehydrogenase domain
- Type: biochemical, Cylindrospermum stagnale
- assayContext: 10 μM inhibitor; 1 μM purified protein, 250 μM NADPH
Record fulfilled whenever % INHIBITION csNOX5 DEHYDROGENASE DOMAIN is at 20% or higher; record not fulfilled when lower.

# smilesString, label
records = [
    ("CS(=O)(=O)Oc1ncnc2c1nnn2Cc1ccccc1", "not fulfilled"),
]

// inclusive: % INHIBITION csNOX5 DEHYDROGENASE DOMAIN at least 20%? input: "Oc1ncnc2c1nnn2Cc1ccccc1"
not fulfilled

// inclusive: % INHIBITION csNOX5 DEHYDROGENASE DOMAIN at least 20%? input: "CCCNC(=O)c1ccc(Cn2nnc3c(Sc4nc5ccccc5o4)ncnc32)cc1"
fulfilled

// inclusive: % INHIBITION csNOX5 DEHYDROGENASE DOMAIN at least 20%? input: "C=CC(=O)N1CCC(Nc2ncnc3c2nnn3Cc2ccccc2)CC1"
fulfilled
